- System: MYB
- EXPERIMENT NOTES: HiBiT protein abundance assay, MYB (K562 HiBiT knock-in)
- Assay type: cell-based, human
- MEASUREMENT SETUP: HiBiT knock-in K562 cells, 24 hours, top dose 10 μM
pIC50: −log10 of the molar value.
Please go through the items and note down their pIC50.

For the 2 molecules below, give their pIC50 values.
1. Cc1cc(=O)c2cc(O)c(-c3ccc4nc(N5CCC(NC(C)(C)C)C5)ccc4n3)cc2o1 (stereo not shown) [Compound 174]
2. C[C@@H]1CN(c2ccc3nc(-c4cc5cn(C)nc5cc4O)ncc3c2)C[C@@H](C)N1 [Compound 753]

Solution:
1. < 5.00
2. 6.00 to 7.00

Hi, could you look up pIC50 for each item in my list?
1. Cc1nc2c(F)c(O)c(-c3ccc4nc(N5CC[C@H](NC(C)C)C5)ccc4n3)cc2o1 (single isomer, unassigned) [Compound 330]
2. CCN(CC)C1CCN(c2ccc3nc(-c4cc5cn(C)nc5c(F)c4O)ncc3c2)CC1 [Compound 756]
3. Cn1cc2cc(-c3ccc4nc(N5CC[C@H](NC6CC6)C5)ccc4n3)c(O)cc2n1 [Compound 197]
4. Cn1cc2cc(-c3ccc4nc(N5CC[C@]67CCN[C@H]6CC[C@H]57)ccc4n3)c(O)cc2n1 [Compound 160]

Solution:
1: > 7.00; 2: 6.00 to 7.00; 3: 6.00 to 7.00; 4: 6.00 to 7.00

Exercise: Find the measured pIC50 of Cc1nc2cc(O)c(-c3ccc4nc(N5CCC(NCC6CC6)C5)ccc4n3)cc2o1 (single isomer, unassigned) [Compound 291] and report it.
Solution: 6.00 to 7.00
